system: Fibroblast; assay: Incucyte cell viability with human fibroblast; assay type: toxicity, cell-based; settings: 12 h, 10 µM, compound concentration 10 uM, replicate number 2; also: unitless GR value; below 1 slowed growth and below 0 cell loss
Entries whose Growth Rate is below 0.3 take Fulfilled; entries at or above 0.3 take Not fulfilled.

Below are worked cases with known answers.
Compound | Label Class
COc1ccc(Br)cc1S(=O)(=O)NC(=O)/C=C/c1cc(Cl)ccc1Cc1ccc2ccccc2c1 | Fulfilled
CC[C@H](CO)Nc1nc(Nc2cccc(-c3ccccn3)c2)c2ncn(C(C)C)c2n1.Cl.O | Fulfilled
O=C1NC(c2cccc([N+](=O)[O-])c2)=CCN1c1ccccc1O [ICILLIN] | Not fulfilled

**Q:** Lab log: compare recorded Growth Rate with 0.3; is it strictly lower for Cn1cc(NC(=O)c2ccc3nc4n(c3c2)CCCNC4=O)nc1C(=O)NC1CCCC1 ?
**A:** Not fulfilled

**Q:** Item CCCCCNC(=O)N1CCC(CN(Cc2ccc(Cl)cc2)Cc2ccc([N+](=O)[O-])s2)C1 (stereo unspecified) [SR9011] : Growth Rate beneath 0.3, strictly?
**A:** Not fulfilled

**Q:** Problem: For the compound Cc1c(N2CCNCC2)nc2ccc(Br)cc2c1C(=O)NC[C@H](CCC(=O)O)c1ccccc1Cl [BAY-403] , is Growth Rate under 0.3?
**A:** Fulfilled
